Just for reference, ChEMBL document CHEMBL1146863 is where these values come from.

molecular target: Vascular endothelial growth factor receptor 2 (Homo sapiens)
Sequence (P35968 whole entry): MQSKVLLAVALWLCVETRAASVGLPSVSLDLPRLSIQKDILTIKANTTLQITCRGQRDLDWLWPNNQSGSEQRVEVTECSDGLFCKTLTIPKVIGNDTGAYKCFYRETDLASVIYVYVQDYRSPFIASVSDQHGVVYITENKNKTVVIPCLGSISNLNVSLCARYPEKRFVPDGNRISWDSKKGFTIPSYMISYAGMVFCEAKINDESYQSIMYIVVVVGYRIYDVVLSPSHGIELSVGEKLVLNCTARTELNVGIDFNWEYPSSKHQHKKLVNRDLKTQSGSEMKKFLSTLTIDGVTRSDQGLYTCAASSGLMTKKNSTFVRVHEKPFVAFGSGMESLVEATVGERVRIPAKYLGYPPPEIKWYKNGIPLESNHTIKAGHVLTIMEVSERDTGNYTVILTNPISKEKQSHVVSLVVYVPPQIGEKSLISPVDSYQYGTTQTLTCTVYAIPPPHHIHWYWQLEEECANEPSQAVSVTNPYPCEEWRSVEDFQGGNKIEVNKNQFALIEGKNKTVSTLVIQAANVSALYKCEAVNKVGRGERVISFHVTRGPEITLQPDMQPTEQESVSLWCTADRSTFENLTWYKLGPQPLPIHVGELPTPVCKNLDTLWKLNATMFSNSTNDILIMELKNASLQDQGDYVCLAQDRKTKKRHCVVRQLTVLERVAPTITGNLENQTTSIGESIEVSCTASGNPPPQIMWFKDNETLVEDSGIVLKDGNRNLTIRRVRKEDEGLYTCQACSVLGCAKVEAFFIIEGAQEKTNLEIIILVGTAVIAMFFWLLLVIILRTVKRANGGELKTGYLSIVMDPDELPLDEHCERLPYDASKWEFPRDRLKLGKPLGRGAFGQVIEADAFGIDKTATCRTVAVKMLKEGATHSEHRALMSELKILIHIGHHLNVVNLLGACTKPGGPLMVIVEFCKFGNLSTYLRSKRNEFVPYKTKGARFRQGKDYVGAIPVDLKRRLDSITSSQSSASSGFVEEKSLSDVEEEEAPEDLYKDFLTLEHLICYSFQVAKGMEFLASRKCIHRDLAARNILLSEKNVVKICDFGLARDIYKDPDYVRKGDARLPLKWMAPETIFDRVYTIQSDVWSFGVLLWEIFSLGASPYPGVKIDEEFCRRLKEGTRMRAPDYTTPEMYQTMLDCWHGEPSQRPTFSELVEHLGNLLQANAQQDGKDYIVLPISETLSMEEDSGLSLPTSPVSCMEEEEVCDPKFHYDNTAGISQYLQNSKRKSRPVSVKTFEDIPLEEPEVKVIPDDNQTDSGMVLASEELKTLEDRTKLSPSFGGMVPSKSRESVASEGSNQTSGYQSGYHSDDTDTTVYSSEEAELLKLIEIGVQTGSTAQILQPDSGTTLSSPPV
quantity.name: IC50

1) Cc1cccc(N/C(=N/Cc2ccc(-c3n[nH]c4c3Cc3cc(CN5CCN(C)CC5)ccc3-4)s2)NC#N)c1; > 50 µM

Kindly consider the entry below.
[Q] Consider the compound shown here: `CN1CCN(Cc2ccc3c(c2)Cc2c-3n[nH]c2-c2csc(CNS(=O)(=O)Cc3ccccc3)c2)CC1` What is its recorded IC50?
[A] > 50 µM

====

Recorded below: IC50, system Vascular endothelial growth factor receptor 1 (Homo sapiens, UniProt P17948).
quantity.name: IC50 (nM)

1. CN1CCN(Cc2ccc3c(c2)Cc2c-3n[nH]c2-c2ccc(CN(C)C(=O)Nc3ccccc3Cl)s2)CC1; 3840

I. CN1CCN(Cc2ccc3c(c2)Cc2c-3n[nH]c2-c2ccc(CNC(=O)Nc3cccc(C(F)(F)F)c3)s2)CC1
II. Cc1cccc(NC(=O)N(C)Cc2ccc(-c3n[nH]c4c3Cc3ccc(CN5CCN(C)CC5)cc3-4)s2)c1
III. CCN(Cc1ccc(-c2[nH]nc3c2Cc2cc(CN4CCN(C)CC4)ccc2-3)s1)C(=O)Nc1cccc(C)c1
IV. CN1CCN(Cc2ccc3c(c2)-c2n[nH]c(-c4ccc(CN(C)C(=O)Nc5ccc(OC(F)(F)F)cc5)s4)c2C3)CC1
[Q] Write the entries in order, lowest recorded IC50 first. // list labels; follow requested order
[A] IV, II, III, I
(IV: 25 nM, II: 44 nM, III: 131 nM, I: 863 nM)

A. CN1CCN(Cc2ccc3c(c2)-c2n[nH]c(-c4ccc(CN(C)C(=O)Nc5ccc(Cl)c(Cl)c5)s4)c2C3)CC1
B. Cc1cccc(NC(=O)N(Cc2ccc(-c3[nH]nc4c3Cc3cc(CN5CCN(C)CC5)ccc3-4)s2)CC(C)C)c1
[Q] Please let me know which one, A or B , has a lower measured IC50 value. Your answer should be the label of the entry you select.
[A] A

====

target: UniProt:Q02763
Sequence (Q02763 whole entry): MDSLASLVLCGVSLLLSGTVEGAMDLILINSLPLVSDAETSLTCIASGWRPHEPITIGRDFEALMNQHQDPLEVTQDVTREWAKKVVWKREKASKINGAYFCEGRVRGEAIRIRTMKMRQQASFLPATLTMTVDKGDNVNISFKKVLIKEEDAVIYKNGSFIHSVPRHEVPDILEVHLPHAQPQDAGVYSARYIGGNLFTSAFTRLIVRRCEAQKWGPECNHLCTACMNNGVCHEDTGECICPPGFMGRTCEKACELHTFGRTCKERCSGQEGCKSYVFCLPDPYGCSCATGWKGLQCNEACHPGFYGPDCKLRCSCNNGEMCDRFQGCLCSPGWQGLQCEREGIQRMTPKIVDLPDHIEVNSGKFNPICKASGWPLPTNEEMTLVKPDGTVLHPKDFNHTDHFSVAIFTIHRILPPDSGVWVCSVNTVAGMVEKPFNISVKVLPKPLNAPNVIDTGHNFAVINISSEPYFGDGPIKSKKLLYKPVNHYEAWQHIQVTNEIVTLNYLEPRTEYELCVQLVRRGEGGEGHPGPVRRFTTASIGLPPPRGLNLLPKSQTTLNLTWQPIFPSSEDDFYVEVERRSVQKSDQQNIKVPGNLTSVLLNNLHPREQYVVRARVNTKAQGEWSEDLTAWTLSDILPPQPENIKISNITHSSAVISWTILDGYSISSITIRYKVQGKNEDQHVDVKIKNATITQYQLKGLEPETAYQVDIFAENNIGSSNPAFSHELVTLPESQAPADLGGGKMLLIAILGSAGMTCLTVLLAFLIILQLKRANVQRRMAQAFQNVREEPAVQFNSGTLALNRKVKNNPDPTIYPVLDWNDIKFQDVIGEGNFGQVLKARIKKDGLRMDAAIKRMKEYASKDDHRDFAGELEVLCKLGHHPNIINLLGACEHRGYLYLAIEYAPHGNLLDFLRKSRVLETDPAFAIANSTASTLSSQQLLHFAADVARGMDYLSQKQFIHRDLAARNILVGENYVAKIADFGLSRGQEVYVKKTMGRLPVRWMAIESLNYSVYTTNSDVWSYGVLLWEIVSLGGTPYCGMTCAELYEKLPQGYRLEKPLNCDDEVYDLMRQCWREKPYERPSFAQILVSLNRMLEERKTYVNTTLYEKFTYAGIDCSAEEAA
quantity.name: IC50 (nM)
Your answer should be a plain number; it is taken to be in nM.

[Q] Find IC50 (UniProt:Q02763) for the entry `CN1CCN(Cc2ccc3c(c2)-c2n[nH]c(-c4ccc(CN(C)C(=O)Nc5cccc(C(F)(F)F)c5)s4)c2C3)CC1`
[A] 259

====

molecular target: Cytochrome P450 3A4 (Homo sapiens)
Sequence (P08684 whole entry): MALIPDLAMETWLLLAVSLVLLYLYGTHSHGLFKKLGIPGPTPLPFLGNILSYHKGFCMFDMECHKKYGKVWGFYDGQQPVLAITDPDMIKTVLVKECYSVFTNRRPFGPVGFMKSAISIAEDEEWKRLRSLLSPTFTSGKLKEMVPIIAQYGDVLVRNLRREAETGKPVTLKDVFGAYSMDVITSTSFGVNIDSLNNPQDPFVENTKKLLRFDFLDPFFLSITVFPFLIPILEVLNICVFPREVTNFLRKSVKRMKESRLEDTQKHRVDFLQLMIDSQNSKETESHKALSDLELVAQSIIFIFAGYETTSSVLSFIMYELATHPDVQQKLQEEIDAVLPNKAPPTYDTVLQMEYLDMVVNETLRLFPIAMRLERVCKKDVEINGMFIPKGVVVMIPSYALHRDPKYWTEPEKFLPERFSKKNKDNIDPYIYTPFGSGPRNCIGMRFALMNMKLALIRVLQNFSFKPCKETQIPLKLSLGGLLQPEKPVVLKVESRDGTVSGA
quantity.name: IC50 (nM)
Return type: number; implicit unit nM.

[Q] // fetch Cytochrome P450 3A4 (Homo sapiens) IC50 for `c1cn(Cc2ccc3c(c2)-c2[nH]nc(-c4ccsc4)c2C3)cn1`
[A] 254

====

List of IC50 tested on Vascular endothelial growth factor receptor 1 (Homo sapiens, UniProt P17948).
Sequence (P17948 whole entry): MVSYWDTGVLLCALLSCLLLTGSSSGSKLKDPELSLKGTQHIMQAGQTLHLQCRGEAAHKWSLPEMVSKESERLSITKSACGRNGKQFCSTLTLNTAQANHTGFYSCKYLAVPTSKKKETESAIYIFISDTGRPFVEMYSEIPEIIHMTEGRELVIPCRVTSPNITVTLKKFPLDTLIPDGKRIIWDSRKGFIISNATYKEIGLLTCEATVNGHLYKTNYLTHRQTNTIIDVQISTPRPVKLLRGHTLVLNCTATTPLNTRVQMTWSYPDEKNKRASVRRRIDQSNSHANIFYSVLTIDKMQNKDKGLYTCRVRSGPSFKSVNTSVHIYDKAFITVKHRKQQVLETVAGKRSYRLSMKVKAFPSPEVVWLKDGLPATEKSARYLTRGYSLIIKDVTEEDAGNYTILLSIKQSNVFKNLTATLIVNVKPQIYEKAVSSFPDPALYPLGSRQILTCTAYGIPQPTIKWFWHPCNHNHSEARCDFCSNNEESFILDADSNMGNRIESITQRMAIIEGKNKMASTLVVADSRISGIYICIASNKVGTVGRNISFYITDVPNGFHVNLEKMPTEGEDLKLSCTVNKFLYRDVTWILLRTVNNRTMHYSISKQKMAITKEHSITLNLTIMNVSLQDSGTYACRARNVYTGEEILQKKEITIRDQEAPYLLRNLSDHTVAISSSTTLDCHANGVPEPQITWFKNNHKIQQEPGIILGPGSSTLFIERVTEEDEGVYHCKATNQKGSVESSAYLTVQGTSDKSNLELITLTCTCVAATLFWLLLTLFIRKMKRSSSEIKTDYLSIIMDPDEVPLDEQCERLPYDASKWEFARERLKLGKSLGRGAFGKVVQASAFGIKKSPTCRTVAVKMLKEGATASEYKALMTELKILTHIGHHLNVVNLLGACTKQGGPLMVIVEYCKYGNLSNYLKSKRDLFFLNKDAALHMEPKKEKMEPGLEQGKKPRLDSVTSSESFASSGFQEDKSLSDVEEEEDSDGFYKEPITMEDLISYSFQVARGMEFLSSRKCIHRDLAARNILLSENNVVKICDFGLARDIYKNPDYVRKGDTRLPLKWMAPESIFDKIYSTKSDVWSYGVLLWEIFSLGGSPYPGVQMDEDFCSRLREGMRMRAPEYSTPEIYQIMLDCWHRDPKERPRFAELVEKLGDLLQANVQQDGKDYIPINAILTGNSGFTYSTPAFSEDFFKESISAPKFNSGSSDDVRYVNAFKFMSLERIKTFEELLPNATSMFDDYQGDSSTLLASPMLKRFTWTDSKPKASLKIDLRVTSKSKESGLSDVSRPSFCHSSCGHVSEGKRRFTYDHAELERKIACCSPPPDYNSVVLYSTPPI
quantity.name: IC50 (µM)

1. COCCN(Cc1ccc(-c2[nH]nc3c2Cc2cc(CN4CCN(C)CC4)ccc2-3)s1)C(=O)Nc1cccc(C)c1; 2.26

a. Cc1ccccc1NC(=O)NCc1ccc(-c2[nH]nc3c2Cc2cc(CN4CCN(C)CC4)ccc2-3)s1
b. Cc1cc(C)cc(NC(=O)NCc2ccc(-c3n[nH]c4c3Cc3cc(CN5CCN(C)CC5)ccc3-4)s2)c1
[Q] Which has the smaller recorded IC50, a or b ? Which one? Tell me its label.
[A] b
(b: 1.67 µM, a: 25 µM)

A. CON(Cc1ccc(-c2[nH]nc3c2Cc2cc(CN4CCN(C)CC4)ccc2-3)s1)C(=O)Nc1cccc(C)c1
B. Cc1cccc(NC(=O)N(Cc2ccc(-c3[nH]nc4c3Cc3cc(CN5CCN(C)CC5)ccc3-4)s2)C2CC2)c1
C. CN1CCN(Cc2ccc3c(c2)Cc2c(-c4ccc(CNC(=O)Nc5cc(Cl)cc(Cl)c5)s4)n[nH]c2-3)CC1
D. Cc1ccc(NC(=O)NCc2ccc(-c3n[nH]c4c3Cc3ccc(CN5CCN(C)CC5)cc3-4)s2)cc1
E. CN1CCN(Cc2ccc3c(c2)-c2n[nH]c(-c4ccc(CN(C)C(=O)Nc5cccc(Cl)c5)s4)c2C3)CC1
[Q] Order the records, beginning with the lowest IC50 and ending with the highest. List the labels according to the requested ordering.
[A] E, B, D, A, C
(E: 0.02 µM, B: 0.038 µM, D: 0.613 µM, A: 1.35 µM, C: 2.28 µM)
